# System: CEM cells HIV-1 protection, formazan growth assay
# Method Notes: NCI AIDS Antiviral Assay
Measured Metric: EC50

Observe how each entry below is paired with its result.
> print(dat)
                                   compound                             target.system  measured.metric  recorded.measurement
1  OC1C(O)C2CC1C1C2C2(Cl)C(Cl)=C(Cl)C1(Cl)C2(Cl)Cl (configuration not stated)  CEM cells HIV-1 protection, formazan growth assay             EC50              > 200 µM
2  CC1CC(=O)Nc2ccc(Cl)cc2N1C(=O)CN1CCC(CCCCN(C)C)CC1 (configuration not stated)  CEM cells HIV-1 protection, formazan growth assay             EC50              > 251 µM
3  N#CC1=C(O)NC(O)=C(C#N)C1c1ccc(C2C(C#N)=C(O)NC(O)=C2C#N)cc1  CEM cells HIV-1 protection, formazan growth assay             EC50              > 631 µM
4  COc1ccc2c(c1)CCN1CCc3ccccc3CC21 (configuration not stated)  CEM cells HIV-1 protection, formazan growth assay             EC50              > 200 µM
5  CCCCCC=C(c1ccc(OC)c(S(=O)(=O)N(C)C)c1)c1ccc(OC)c(S(=O)(=O)N(C)C)c1  CEM cells HIV-1 protection, formazan growth assay             EC50             > 35.5 µM

Consider the additional compound presented here.
Input line: Check the records and state EC50 for CN(C)CCN1C(=O)c2c(c3cccn3c3c2cnn3-c2ccccc2)C1=O
Output line: > 200 µM

Taken from PubChem BioAssay AID179.
